Measured values drawn from paper PMC10397247 for this set.

# subjectOfTest: T1, 4H2691-bA
# T1 chain: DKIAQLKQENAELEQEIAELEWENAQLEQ
# protocol: two-hybrid library CCNG1;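 note: natural log of median RNA to DNA barcode read ratio; higher means stronger binding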
experimentalReadout: interaction score

{"binder": "DENAQLEQKIAELKQENAELKWKIAQLEQ [4H1373-bA]", "interaction score": 0.119}
{"binder": "DEIAQLEQENAELEQENAELEWEIAQLEQ [4H145-bA]", "interaction score": -0.624}
{"binder": "DKIAQLKQEIAELEQKNAELKWENAQLEQ [4H2619-bA]", "interaction score": -0.41}

P: DENAQLEQKIAELKQEIAELEWENAQLEQ [4H1347-bA]
Q: DKIAQLKQENAELEQEIAELEWENAQLEQ [4H2691-bA]
Query: Of P and Q , which shows the smaller interaction score value? Please identify the chosen entry by its label.
Response: Q
